Origin of measurements: patent US20230027198A1

measured on: ENL YEATS domain (6×HIS ENL YEATS Domain) binding to H3K9cr peptide (Homo sapiens, UniProt Q03111)
Sequence (Q03111 1-150): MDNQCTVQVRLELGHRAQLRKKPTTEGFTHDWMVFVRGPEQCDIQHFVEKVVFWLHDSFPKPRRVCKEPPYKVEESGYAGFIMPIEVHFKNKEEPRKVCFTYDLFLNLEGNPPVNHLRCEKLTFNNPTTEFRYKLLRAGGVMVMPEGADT
endpoint label: pIC50
Schema: pIC50 number; meaning minus log10 of the concentration expressed in molar units.

Asked: Give a short answer stating reported pIC50 for C[C@H]1CCCN1Cc1cc2ncc(NC(=O)c3ccc(-c4cc[nH]n4)cc3F)cc2[nH]1 .
Given back: 6.39

Asked: Give a short answer stating reported pIC50 for CC(=O)Nc1nn(C)c2cc(C(=O)Nc3cc4[nH]c(CN5CCC[C@@H]5C)cc4cn3)ccc12 .
Given back: 6.48

Asked: Give a short answer stating reported pIC50 for C[C@H]1CCCN1Cc1cc2cnc(NC(=O)c3ccc(-n4ccnc4)cn3)cc2[nH]1 .
Given back: 5.63

Asked: Give a short answer stating reported pIC50 for CC1C(=O)Nc2cc(C(=O)Nc3cc4[nH]c(CN5CCC[C@@H]5C)cc4cn3)ccc21 (stereo partly drawn) .
Given back: 6.39

Asked: Give a short answer stating reported pIC50 for C[C@H]1CCCN1Cc1cc2cnc(NC(=O)c3ccc4c(N)nccc4c3)cc2[nH]1 .
Given back: 7.48

Asked: Give a short answer stating reported pIC50 for Cc1nn(C2CS(=O)(=O)C2)c2ccc(C(=O)Nc3cc4[nH]c(CN5CCC[C@@H]5C)cc4cn3)cc12 .
Given back: 6.90

Asked: Give a short answer stating reported pIC50 for C[C@H]1CCCN1Cc1cc2nnc(NC(=O)c3ccc4c(cnn4C)c3)cc2[nH]1 .
Given back: 6.70

Asked: Give a short answer stating reported pIC50 for C[C@H]1CCCN1Cc1cc2cnc(NC(=O)c3ccc4[nH]nnc4c3)cc2[nH]1 .
Given back: 6.29

Asked: Give a short answer stating reported pIC50 for C[C@H]1CCCN1Cc1cc2cnc(NC(=O)c3ccc4c(c3)CNC(=O)N4C)cc2[nH]1 .
Given back: 6.48

Asked: Give a short answer stating reported pIC50 for C[C@H]1CCCN1Cc1cc2cnc(NC(=O)c3ccc4c(CO)nccc4c3)cc2[nH]1 .
Given back: 7.07

Asked: Give a short answer stating reported pIC50 for C[C@H]1CCCN1Cc1cc2cnc(NC(=O)c3ccc(CN)cc3)cc2[nH]1 .
Given back: 5.92

Asked: Give a short answer stating reported pIC50 for C[C@H]1CCCN1Cc1cc2cnc(NC(=O)c3ccc4c(c3)OCC(=O)N4C)cc2[nH]1 .
Given back: 6.36
